Biological target: MrkH-8xHis (Klebsiella pneumoniae AJ218)
Sequence: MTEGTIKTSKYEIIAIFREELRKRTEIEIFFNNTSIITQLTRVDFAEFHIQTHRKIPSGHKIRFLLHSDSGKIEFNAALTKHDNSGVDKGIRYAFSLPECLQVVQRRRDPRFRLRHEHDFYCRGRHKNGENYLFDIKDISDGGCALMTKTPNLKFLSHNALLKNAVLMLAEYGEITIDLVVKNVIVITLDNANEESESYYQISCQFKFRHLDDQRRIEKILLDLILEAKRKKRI
Assay: EMSA
Settings: 10 mM Tris-HCl pH 7.4, 50 mM KCl, 1 mM DTT, 100 mg/mL BSA (so in the source), 5 ng/mL poly[dI-dC], 200 uM c-di-GMP, 30 C 20 min; 5% native PAGE with 50 uM c-di-GMP …
Property: binding

GCTGTTGCGGTCACTTTCTCTCGCTCTGGCGTTAGGCTTGCTGCGCTGTAAACAACCACCCTCGCGTTTTCATCTATCAATGACTGTTTATTAATAGTCGATGGTTATCTGTTATATAACTTAATGAAACGTGAACAAATGTATATTTGTCGGCGAATAAATAGCATTCTTTGACGCCGATAGCACCAGCGAACTTATATTTTTAGGTTCGTTACCTGACGCCTTAAATATTGCGGCTCCCGGTCAGTCGAAGATTCTATTAGCAGTGGC (double strand) [mrkA promoter fragment, wild type]
binds

These measurements were taken from paper PMC3828302.
